- Tested System: GLUT9 (Homo sapiens, UniProt Q9NRM0, N458A)
- Construct: full length human SLC2A9, N-terminal twin strep and FLAG tag
- Sequence (Q9NRM0 1-540 N458A): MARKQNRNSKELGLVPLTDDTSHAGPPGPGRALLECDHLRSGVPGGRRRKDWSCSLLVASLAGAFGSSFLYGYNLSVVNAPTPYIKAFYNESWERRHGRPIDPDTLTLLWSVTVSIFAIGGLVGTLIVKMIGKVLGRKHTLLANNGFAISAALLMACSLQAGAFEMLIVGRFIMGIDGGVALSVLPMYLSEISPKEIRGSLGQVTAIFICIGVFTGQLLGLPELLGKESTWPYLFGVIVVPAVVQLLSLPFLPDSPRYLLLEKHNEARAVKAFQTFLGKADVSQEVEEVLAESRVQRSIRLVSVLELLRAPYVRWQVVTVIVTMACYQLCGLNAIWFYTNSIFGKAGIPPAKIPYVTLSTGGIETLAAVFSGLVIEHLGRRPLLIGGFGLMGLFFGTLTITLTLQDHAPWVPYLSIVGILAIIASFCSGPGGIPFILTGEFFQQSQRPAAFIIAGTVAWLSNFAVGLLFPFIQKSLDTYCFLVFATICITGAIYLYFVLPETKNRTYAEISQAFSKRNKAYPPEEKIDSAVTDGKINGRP
- Method Summary: MST with purified protein
Experimental Readout: pKd
The meaning of pKd here: minus log10 of the concentration in molar units.

Using the record for O=c1cc(-c2ccc(O)cc2)oc2cc(O)cc(O)c12 , report its pKd.
5.39
